- System: L6 cells
- PROTOCOL DESCRIPTION: Cytotoxicity against L6 cells
- Assay type: cell-based
- RUN PARAMETERS: Rattus norvegicus, Table 4, pure compounds
MEASURED PROPERTY: IC50 (µg/mL)

COMPOUND	UNIT OF MEASUREMENT	NUMERIC VALUE
COC(=O)c1cc(O)c(O)c(O)c1 [Methyl gallate (2), methyl gallate]	µg/mL	16
O=c1c(O)c(-c2ccc(O)c(O)c2)oc2c(O)c(O[C@@H]3O[C@H](CO)[C@@H](O)[C@H](O)[C@H]3O)cc(O)c12 [Gossypetin-7-O-β-glucopyranoside (6), gossypetin-7-O-β-glucopyranoside]	µg/mL	8.9
O=c1cc(-c2ccc(O)c(O)c2)oc2c(O)c(O[C@@H]3O[C@H](CO)[C@@H](O)[C@H](O)[C@H]3O)cc(O)c12 [Hypolaetin-7-O-glucoside (7), hypolaetin-7-O-glucoside]	µg/mL	19
O=C(OC[C@@H]1O[C@H](OC(=O)c2cc(O)c(O)c(O)c2)[C@@H](OC(=O)c2cc(O)c(O)c(O)c2)[C@H](OC(=O)c2cc(O)c(O)c(O)c2)[C@H]1OC(=O)c1cc(O)c(O)c(O)c1)c1cc(O)c(O)c(O)c1 [Pentagalloyl-β-glucopyranoside (5), 1,2,3,4,6 pentagalloyl-β-glucopyranoside]	µg/mL	21
CCOC(=O)c1cc(O)c(O)c(O)c1 [Ethyl gallate (4), ethyl gallate]	µg/mL	15
CC/C=C\C/C=C\C/C=C\CCCCCCCc1cc(O)cc(O)c1	µg/mL	13
O=C(O)c1cc(O)c(O)c(O)c1	µg/mL	16
